- Tested on: MDA-MB-231
- test-protocol: NCI tumour cell line growth inhibition, 48 h
Activity calls are given as the source filed them. No stated cut-off is given here; in the data, active = GI50 up to about 1.1 µM and inactive = higher.
In this exercise, the only acceptable responses are active, inactive

Field: example entries. Status: answers known.
[[record]]
compound = "NS(=O)(=O)c1nnc(NC(=O)Nc2ccc(Cl)c(Cl)c2)s1"
group_label = "inactive"

[[record]]
compound = "c1ccc2c(c1)CN1CCCC1CN2 (stereo not drawn)"
group_label = "inactive"

[[record]]
compound = "COc1cccc2c1C(=O)c1c(O)c3c(c(O)c1C2=O)CC(O)(C(=O)CO)CC3OC1CC(N2CCOCC2C#N)C(O)C(C)O1 (stereo not drawn)"
group_label = "active"

[[record]]
compound = "COc1cc(C(=O)Oc2ccc3c(c2)OCO3)cc(OC)c1OC"
group_label = "inactive"

[[record]]
compound = "CC1=C(C(=O)NNC(=O)CC#N)CC(C(=O)NNC(=O)CC#N)=C(C)N1"
group_label = "inactive"

[[record]]
compound = "COC(=O)C1=COC(OC2OC(CO)C(O)C(O)C2O)C2C3CN4CCc5c([nH]c6ccccc56)C4(CC12)O3 (stereo not drawn)"
group_label = "inactive"

[[record]]
compound = "CC12CC3CC/C(=N\\O)C(C1)C3(N1CCOCC1)C/C2=N/O (stereo not drawn)"
group_label = "inactive"

[[record]]
compound = "CC(=O)N(CC(=O)C(=O)NNc1ccoc1)c1ccc(Cl)cc1"
group_label = "inactive"


Q: Given CCC(C)(C)c1ccc(Oc2cccc(C(=O)O)c2)cc1 , state the outcome it received in this test.
Result: inactive

Q: Given NC(=O)SCCC(N)C(=O)O (stereo not drawn) , state the outcome it received in this test.
Result: inactive

Q: Given C=CCc1cccc2cc(C(=O)NC3CCCCC3)c(=N)oc12 , state the outcome it received in this test.
Result: inactive

Q: Given COC(=O)C1(Cc2ccc(C)cc2)Cc2c(C)cccc2C1=O (stereo not drawn) , state the outcome it received in this test.
Result: inactive

Q: Given Cc1ccc2c(n1)C(=O)c1cc(C)c(C)cc1C2=O , state the outcome it received in this test.
Result: inactive

Q: Given CON(C(=O)OC(C)(C)C)c1ccccc1 , state the outcome it received in this test.
Result: inactive

Q: Given O=CN1CCN(C(=O)c2ccc(Cl)c(Cl)c2)C1=S , state the outcome it received in this test.
Result: inactive

Q: Given O=P1(N(CCCl)CCCl)Oc2ccc(Cl)cc2Sc2c(ccc(Cl)c2Cl)O1 (stereo not drawn) , state the outcome it received in this test.
Result: inactive
